Reported fraction ligated values are given for each entry in this list.
B1: F1*; the commonest letter at each place (parent)
chain: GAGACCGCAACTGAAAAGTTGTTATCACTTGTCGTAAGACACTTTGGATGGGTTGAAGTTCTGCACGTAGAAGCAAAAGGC

# Variants of: B1
# Assay Info: fraction ligated after 30 min (ligated reads / total reads); higher = more ligase activity
# Condition Notes: with F1*sub RNA substrate (template-directed ligation), 42 °C
Please respond with just the number, no unit label.

In: Assign fraction ligated to the following record: A36C G46T
Out: 0.778

In: Provide one value: measured fraction ligated of A39T G46T
Out: 0.771

In: Provide measured fraction ligated value, entry: G47T T49G
Out: 0.261
